Numbers sourced from patent US20120316071A1.

Measured Target: T1, rHuman Notch-1/Fc Chimera, CF (R&D Systems Cat#3647-TK) (human, UniProt P46531 19-526)
T1 construct: Bought recombinant Fc chimera; Fc part of the bought chimera not given
Test Description: ECL multispot (MSD), antigen spotted, Fab in solution;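 also: purified Fab incubated 1 h at 20 °C on antigen-spotted wells, bound Fab detected via TAG detection antibody, ECL compared with each well's blank, ratio of 4 or above scored as hit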
Items are presented alongside their recorded ECL signal.
Format: numeric value only, no unit, no commentary.

Fab VH1-46_IGHD6-6*01_IGHJ1*01 S102A/S103P/S104F/H111F (APFF) & L6_IGKJ1*01 S28H (Fab, V domains shown, Fab; VH cloned into Plasmid A (CH1, His6 and Flag tags) and VL into Plasmid C (kappa CL); also called APFF / S28H) VH: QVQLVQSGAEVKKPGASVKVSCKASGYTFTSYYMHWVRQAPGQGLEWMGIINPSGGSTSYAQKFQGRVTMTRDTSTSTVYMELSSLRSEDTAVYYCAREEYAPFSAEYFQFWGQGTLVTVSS VL: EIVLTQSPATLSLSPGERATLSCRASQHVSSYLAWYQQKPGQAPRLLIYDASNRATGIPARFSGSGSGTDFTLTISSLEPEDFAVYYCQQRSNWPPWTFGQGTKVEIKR; 482

## Task Sample Fab VH1-46_IGHD6-6*01_IGHJ1*01 S102A/S103P/S104F/H111F (APFF) & L6_IGKJ1*01 S30L (Fab, V domains shown, Fab; VH cloned into Plasmid A (CH1, His6 and Flag tags) and VL into Plasmid C (kappa CL); also called APFF / S30L) VH: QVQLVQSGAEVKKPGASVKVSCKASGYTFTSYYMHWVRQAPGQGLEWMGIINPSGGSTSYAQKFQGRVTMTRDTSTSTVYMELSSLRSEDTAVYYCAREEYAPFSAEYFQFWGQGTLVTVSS VL: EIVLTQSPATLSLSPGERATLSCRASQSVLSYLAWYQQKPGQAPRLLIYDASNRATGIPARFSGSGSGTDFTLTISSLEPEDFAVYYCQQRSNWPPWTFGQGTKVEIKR — what was its ECL signal?
## Result 389

## Task Input Fab VH1-46_IGHD6-6*01_IGHJ1*01 S102A/S103P/S104F/H111F (APFF) & L6_IGKJ1*01 S28I (Fab, V domains shown, Fab; VH cloned into Plasmid A (CH1, His6 and Flag tags) and VL into Plasmid C (kappa CL); also called APFF / S28I) VH: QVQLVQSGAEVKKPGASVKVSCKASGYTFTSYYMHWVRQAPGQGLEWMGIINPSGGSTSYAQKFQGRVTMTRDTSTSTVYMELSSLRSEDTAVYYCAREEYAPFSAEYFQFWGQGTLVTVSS VL: EIVLTQSPATLSLSPGERATLSCRASQIVSSYLAWYQQKPGQAPRLLIYDASNRATGIPARFSGSGSGTDFTLTISSLEPEDFAVYYCQQRSNWPPWTFGQGTKVEIKR
## Result 442
